For each of the compounds below, state its inhibition.
- PROTOCOL_DESCRIPTION: A qHTS for Small Molecule Inhibitors of Shiga Toxin; further: 0% is about no effect
- CONDITION_DETAILS: Vero cells, Shiga toxin protein synthesis inhibition reporter; at 38.7 µM, stronger effect = higher value
Out of some 290,000 compounds screened, about 27,000 (9.3%) were called active. Shown is part of a subset that was picked to be rich in actives.
Expressed in %, but write only the number.

Please give the documented inhibition of CCC(C)[C@H](NC(=O)N1c2ccccc2NC(=O)[C@@H]1C(C)C)C(=O)N[C@@H](Cc1ccccc1)C(=O)O (stereo partly specified) -1.75

Please give the documented inhibition of Cn1c(SCC(=O)N2CCCC2)nnc1-c1cccs1 19.8

Please give the documented inhibition of CC(C(=O)NCC1CCCCC1)N(C)Cc1cccc(Cl)c1 (stereo unspecified) 25.2

Please give the documented inhibition of Cc1ccc(-c2nnc(CN3CCN(C)CC3)o2)cc1 21.4

Please give the documented inhibition of CCc1nnc(NC(=O)c2sc3nc(C)cc(COC)c3c2N)s1 53.1

Please give the documented inhibition of Cc1cc(NS(=O)(=O)c2ccc(NC(=O)C(C)Oc3cccc(C)c3C)cc2)nc(C)n1 (stereo unspecified) 1.79

Please give the documented inhibition of CCn1ccnc1CN(C)C(=O)c1ccc2nc(Cc3ccc(OC)cc3)oc2c1 -2.76

Please give the documented inhibition of O=C(Nc1cccc2cccnc12)c1cccc(Cl)c1 87.7

Please give the documented inhibition of Cc1cc(NC(=O)CCN2CCN(Cc3ccccc3)CC2)ccc1Br 3.31

Please give the documented inhibition of CCOc1ccc(C2NC(=S)NC3=C2CCc2ccccc23)cc1 (stereo unspecified) 50.5

Please give the documented inhibition of COc1cccc(CN2CCN(Cc3ccc4cccc(F)c4n3)CC2CCO)c1 (stereo unspecified) 12.8

Please give the documented inhibition of Cc1ccc(Cn2c(=N)c(S(=O)(=O)c3ccc(C)cc3)cc3c(=O)n4ccccc4nc32)cc1 -2.01

Please give the documented inhibition of COc1ccc(S(=O)(=O)NCC(=O)NC2CC2)cc1OC -5.35

Please give the documented inhibition of CCCNC(=O)COc1coc(CN2CCN(Cc3ccccc3)CC2)cc1=O -16.7

Please give the documented inhibition of NC(=O)N/N=C\c1cccs1 17.5

Please give the documented inhibition of O=C(Nc1ccccc1Cl)Nn1cnnc1 14.1

Please give the documented inhibition of CCC(C)Sc1nc2c(cnn2-c2ccc(F)cc2)c(=O)[nH]1 (stereo unspecified) -5.58

Please give the documented inhibition of CCc1nnc(NC(=O)c2cccc(S(=O)(=O)N(C)c3ccc(OC)cc3)c2)s1 -10.6

Please give the documented inhibition of Nc1ccc(-c2nnc(-c3ccccc3)o2)cc1 71.6

Please give the documented inhibition of O=C(CN1C(=O)COc2ccc(Cl)cc21)N1CCOCC1 -1.98

Please give the documented inhibition of Nc1ccc(-c2sc(N)nc2-c2ccccc2)cc1 -12.4

Please give the documented inhibition of CC(C)c1ccc(S(=O)(=O)NC2CCCC2)cc1 -8.49

Please give the documented inhibition of C=CCc1cc(S(=O)(=O)c2ccc(O)c(CC=C)c2)ccc1O -18

Please give the documented inhibition of CCc1ccc(NC(=O)Cn2ncn3c(cc4ccccc43)c2=O)cc1 5.27

Please give the documented inhibition of O=C(CSc1ncccn1)N1CCCC1 15.5

Please give the documented inhibition of Cc1ccc(CN(C)Cc2cc(=O)oc3cc(C)c(Cl)cc23)cc1 7.75

Please give the documented inhibition of O=C(Nc1cccc2cccnc12)C(F)(F)F -8.11

Please give the documented inhibition of CCOc1ccccc1NC(=O)Cn1ncc2ccc([N+](=O)[O-])cc21 -3.64

Please give the documented inhibition of Nc1ccc(-c2nnc(-c3ccc(-c4ccccc4)cc3)o2)cc1 63.4

Please give the documented inhibition of Cc1nnc(N/N=C/c2cccs2)[nH]c1=O 3.51

Please give the documented inhibition of Nc1ccc(Nc2ccccc2)cc1 -17

Please give the documented inhibition of O=C(CSCc1cccs1)N1CCCC1 55.4

Please give the documented inhibition of O=C(NCC(=O)N(Cc1cccs1)C(C(=O)NC1CCCCC1)c1ccco1)c1cccs1 (stereo unspecified) 4.26

Please give the documented inhibition of O=C(COc1ccccc1)NCCc1nc2ccccc2[nH]1 -37.8

Please give the documented inhibition of Cc1cccc(N2CCN(C(=O)c3cccc(N4C(=O)C5C6C=CC(C6)C5C4=O)c3)CC2)c1C (stereo unspecified) -9.11

Please give the documented inhibition of COC(=O)CN1C(=O)[C@H]2[C@@H](/C=C/c3ccccc3)N3C(=O)CN(CC4CC4)C(=O)[C@@]3(Cc3ccccc3)[C@H]2C1=O -11.8
